src = patent US20130336893A1

Biological target: human glucagon receptor (human, UniProt P47871 26-477)
Sequence (P47871 26-477): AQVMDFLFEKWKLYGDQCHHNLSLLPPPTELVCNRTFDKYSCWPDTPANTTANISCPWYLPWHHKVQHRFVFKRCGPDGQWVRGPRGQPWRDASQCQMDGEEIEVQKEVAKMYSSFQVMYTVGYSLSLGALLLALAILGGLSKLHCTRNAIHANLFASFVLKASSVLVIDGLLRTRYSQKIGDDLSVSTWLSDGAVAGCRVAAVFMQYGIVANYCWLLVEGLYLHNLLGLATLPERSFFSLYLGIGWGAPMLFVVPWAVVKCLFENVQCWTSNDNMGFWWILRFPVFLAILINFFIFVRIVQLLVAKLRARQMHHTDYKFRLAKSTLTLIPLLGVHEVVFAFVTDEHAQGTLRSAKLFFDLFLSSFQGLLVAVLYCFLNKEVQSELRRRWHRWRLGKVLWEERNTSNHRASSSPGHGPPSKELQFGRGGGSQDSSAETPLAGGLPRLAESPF
Assay: cell-based or functional assay
*1 amine or outer side, *2 acyl side, *3 side chain or, on linkers, in order; H or OH if unused. Where no end group is shown, it is not given here. Side-chain parts run from the residue outwards. [ ]: non-standard residue; d: D form. The star is where a group is joined. γGlu = O=C(O)[C@H](CCC(=O)[*:2])N[*:1]; Stearoyl = CCCCCCCCCCCCCCCCCC(=O)*; Palmitoyl = CCCCCCCCCCCCCCCC(=O)*; Dab = NCC[C@H](N)C(=O)O
# EC50 hGlucagonR (cAMP formation) annotations

binder | EC50 hGlucagonR (cAMP formation)
GH[dS]QGTFTSDLSKQMESRRAQDFIEWLKSGGPSSGAPPPSK([γGlu-Palmitoyl])-NH2 [SEQ ID NO: (82)] | 5.52 nM
H[dS]QGTFTSDLSKQMESRRAQDFIEWLKSGGPSSGAPPPS[Dab]([γGlu-Palmitoyl])-NH2 [SEQ ID NO: (89)] | 0.0198 nM
HSQGTFTSDLSKQMDSRRAQDFIEWLKNGGPSSGAPPPS-{NH‑CH2‑CH2‑S‑tBu} [SEQ ID NO: (36)] | 0.0458 nM
HSQGTFTSDLSKQMDERRAQDFIEWLKNGGPSSGAPPPS-NH2 [SEQ ID NO: (5)] | 0.067 nM
H[dS]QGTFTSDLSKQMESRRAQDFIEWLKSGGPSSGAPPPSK([γGlu-Stearoyl])-NH2 [SEQ ID NO: (84)] | 0.0138 nM
H[dS]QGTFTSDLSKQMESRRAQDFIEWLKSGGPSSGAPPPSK([γGlu-γGlu-Palmitoyl])-NH2 [SEQ ID NO: (97)] | 0.0363 nM
H[dS]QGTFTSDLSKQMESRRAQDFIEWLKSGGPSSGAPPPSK(Ac)-NH2 [SEQ ID NO: (105)] | 0.614 nM
